meta.source: the RNAGym collection of RNA variant scans (doi:10.1073/pnas.2313332121)

B1: TPR t1 (parent)
chain: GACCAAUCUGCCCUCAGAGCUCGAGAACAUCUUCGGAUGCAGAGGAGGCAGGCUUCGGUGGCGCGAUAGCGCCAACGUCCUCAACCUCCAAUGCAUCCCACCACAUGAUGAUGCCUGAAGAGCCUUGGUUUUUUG

Variants of: B1
Experiment: polymerase ribozyme fitness, log enrichment relative to wild type (log ratio); higher = more active; in vitro selection for triplet polymerase activity
measured_attribute: polymerase ribozyme fitness (log ratio)

> print(dat)
                   variant.string  observed.result
1  A24G U54G G57C C72U C73G C124U            -3.92
2                      C62G C114U            -4.41
3                  A43C G57U G77U            -2.72
4            C8A G48A C101G C115U            -4.25
5                      C11A G117A             -3.3

The value of polymerase ribozyme fitness (log ratio) measured for the variant C22U U92G C94A C104G U109G G122A C123A U125A turned out to be -7.36

The value of polymerase ribozyme fitness (log ratio) measured for the variant G19U G107A G120A U125A turned out to be -7.29

The value of polymerase ribozyme fitness (log ratio) measured for the variant G47U G48U C79U turned out to be -2.83

The value of polymerase ribozyme fitness (log ratio) measured for the variant C34U C101U U112A turned out to be -6.92

The value of polymerase ribozyme fitness (log ratio) measured for the variant C13A A111U turned out to be -4.17

The value of polymerase ribozyme fitness (log ratio) measured for the variant G45C C70U A83C turned out to be -1.86
